Recorded values, source BindingDB's records for doi:10.1021/jm980439q.

Target: Voltage-dependent L-type calcium channel subunit alpha-1C (Cavia porcellus)
Test: Displacement of [3H](+)-PN200-110 binding to calcium channels in guinea pig cardiac membranes.
parameter: pKi
In plain terms, pKi is the concentration in mol/L turned into minus its base-10 logarithm.

compound: CCOC(=O)C1=C(C)N=C(C)C(C(=O)OCC)C1c1c(C)noc1CCc1ccccc1-c1ccccc1 (stereo not drawn)
result.number: 7.04
//
compound: CCOC(=O)C1=C(C)N=C(C)C(C(=O)OCC)C1c1c(C)noc1CCc1ccc2ccccc2c1 (stereo not drawn)
result.number: 7.70

Proceeding to the next compound to report its pKi.
INPUT: Indicate its recorded pKi; the compound in question is CCOC(=O)C1=C(C)N=C(C)C(C(=O)OCC)C1c1c(C)noc1CCc1cccc2ccccc12 (stereo not drawn)
OUTPUT: 8.39
